Test system: Male SD rats
Assay: Sedative and hypnotic effects after oral administration (gavage, righting reflex)
Assay type: in vivo, rat
Settings: gavage, 0.16 μmoL/kg, until recovery of righting reflex
Counter-ions that a name gives are not always drawn.
measure: Duration (min)
Dear colleague, please return just the value in min, with no unit written.

These recorded examples may help you get a feel for the data.
molecule | Duration / min
COC(=O)OCn1cnc([C@@H](C)c2cccc(C)c2C)c1 [Compound 13] | 21
Cc1cccc([C@H](C)c2cn(C(=O)OCC(C)C)cn2)c1C [Compound 4-HCl] | 20
CC(=O)OCn1cnc([C@@H](C)c2cccc(C)c2C)c1 [Compound 1-HCl] | 17
CC(=O)OC(C)n1cnc([C@@H](C)c2cccc(C)c2C)c1 (stereo partly drawn) [Compound 17] | 9
CCC(=O)OCn1cnc([C@@H](C)c2cccc(C)c2C)c1 [Compound 10] | 15

Which Duration is listed for Cc1cccc([C@H](C)c2cn(COC(=O)OC(C)C)cn2)c1C [Compound 7] ? 22

Can you share its Duration? I mean this molecule: COC(=O)COC(=O)OCn1cnc([C@@H](C)c2cccc(C)c2C)c1 [Compound 23] 8

Name the reported Duration value associated with the molecule Cc1cccc([C@H](C)c2cn(COP(=O)(OC(C)(C)C)OC(C)(C)C)cn2)c1C [Compound 12] 11

----------
Assay: Degradation of prodrug in rat plasma (release of dexmedetomidine, HPLC)
Assay type: in vitro ADME
Conditions: 37° C., 2 min
Counter-ions that a name gives are not always drawn.
// reported Degradation rate of prodrug % for each item listed
Value expressed in %; do not type the unit.

// worked examples, Degradation rate of prodrug % included
compound | numeric_value
CCOC(=O)OCn1cnc([C@@H](C)c2cccc(C)c2C)c1 [Compound 6-HCl] | 76
CCCC(=O)OCn1cnc([C@@H](C)c2cccc(C)c2C)c1 [Compound 8-HCl] | 97
Cc1cccc([C@H](C)c2cn(COP(=O)(O)O)cn2)c1C | 32

Any idea what its Degradation rate of prodrug % is? The compound is CCC(=O)OC(C)n1cnc([C@@H](C)c2cccc(C)c2C)c1 (stereo partly drawn) [Compound 18-HCl] 42

Tell me the measured Degradation rate of prodrug % of Cc1cccc([C@H](C)c2cn(COC(=O)OC3CCC3)cn2)c1C [Compound 14-HCl] , please. 85

Quick one: Degradation rate of prodrug % of Cc1cccc([C@H](C)c2cn(COC(=O)C(C)C)cn2)c1C [Compound 2-HCl] ? 87

----------
Experiment: Degradation of prodrug in rat plasma (release of dexmedetomidine, HPLC)
Format: in vitro ADME
Conditions: 37° C., 15 min
Procedure: The test prodrug was formulated as a 1 mg/mL of physiological saline solution, and then 100 μL of the prodrug solution was added to 900 μL of rat plasma. The test solution was vortexed for 30 s before incubation at 37° C. […] 100 μL of the supernatant was injected for detection by HPLC, and the concentration of dexmedetomidine was determined by an internal standard method. The degradation rate of the prodrug was calculated based on the concentration of dexmedetomidine. […]
Counter-ions that a name gives are not always drawn.
Parameter: Degradation rate of prodrug %. Scope: all listed entries.
Unit % implied. Number only.

The examples below pair each entry with its known result.
compound | Degradation rate of prodrug % [%]
Cc1cccc([C@H](C)c2cn(COC(=O)C3CC3)cn2)c1C [Compound 15-HCl] | 100
CCOC(=O)COC(=O)OCn1cnc([C@@H](C)c2cccc(C)c2C)c1 [Compound 24-HCl] | 36
CC(=O)OC(C)n1cnc([C@@H](C)c2cccc(C)c2C)c1 (some centres unmarked) [Compound 17-HCl] | 48
COC(=O)COC(=O)OCn1cnc([C@@H](C)c2cccc(C)c2C)c1 [Compound 23-HCl] | 28
CCCOC(=O)n1cnc([C@@H](C)c2cccc(C)c2C)c1 [Compound 11-HCl] | 95

Using the record for CCC(=O)OC(C)n1cnc([C@@H](C)c2cccc(C)c2C)c1 (some centres unmarked) [Compound 18-HCl] , report its Degradation rate of prodrug %. 64

For the compound shown here, COC(=O)OCn1cnc([C@@H](C)c2cccc(C)c2C)c1 [Compound 13-HCl] , give the reported Degradation rate of prodrug %. 100

Given CCOC(=O)CCC(=O)OCn1cnc([C@@H](C)c2cccc(C)c2C)c1 [Compound 27-HCl] , state its recorded Degradation rate of prodrug %. 97

I would be grateful if you could share the reported Degradation rate of prodrug % for COC(=O)CCC(=O)OCn1cnc([C@@H](C)c2cccc(C)c2C)c1 [Compound 25-HCl] . 69

Which Degradation rate of prodrug % value belongs to Cc1cccc([C@H](C)c2cn(C(=O)OC(C)C)cn2)c1C [Compound 5-HCl] ? 100

Form field: reported Degradation rate of prodrug % of Cc1cccc([C@H](C)c2cn(COP(=O)(O)O)cn2)c1C [Compound 26] 37

----------
Assay: Degradation of prodrug in rat plasma (release of dexmedetomidine, HPLC)
Format: in vitro ADME
Settings: 37° C., 5 min
Where a name gives a salt, the structure may show the parent alone.
Measured Degradation rate of prodrug % of individual entries
State just the number; it will be interpreted in %.

Example results:
compound | unit_symbol | Degradation rate of prodrug %
CCCOC(=O)n1cnc([C@@H](C)c2cccc(C)c2C)c1 [Compound 11-HCl] | % | 82
COC(=O)COC(=O)OCn1cnc([C@@H](C)c2cccc(C)c2C)c1 [Compound 23-HCl] | % | 25
CCC(=O)OC(C)n1cnc([C@@H](C)c2cccc(C)c2C)c1 (stereo partly drawn) [Compound 18-HCl] | % | 54
CCOC(=O)COC(=O)OCn1cnc([C@@H](C)c2cccc(C)c2C)c1 [Compound 24-HCl] | % | 31
Cc1cccc([C@H](C)c2cn(COP(=O)(O)O)cn2)c1C | % | 34
Cc1cccc([C@H](C)c2cn(C(=O)OC(C)C)cn2)c1C [Compound 5-HCl] | % | 89
CCOC(=O)CCC(=O)OCn1cnc([C@@H](C)c2cccc(C)c2C)c1 [Compound 27-HCl] | % | 78
Cc1cccc([C@H](C)c2cn(COC(=O)C(C)C)cn2)c1C [Compound 2-HCl] | % | 100

Now for another entry.
Please look up its Degradation rate of prodrug %: Cc1cccc([C@H](C)c2cn(COC(=O)C(C)(C)C)cn2)c1C [Compound 3-HCl] 100

----------
Assay: Degradation of prodrug in rat plasma (release of dexmedetomidine, HPLC)
Assay type: in vitro ADME
Settings: 37° C., 0.5 min
Counter-ions that a name gives are not always drawn.
Reported Degradation rate of prodrug % values follow for various compounds

Recorded results for 2 compounds are shown here.
compound | Degradation rate of prodrug %
Cc1cccc([C@H](C)c2cn(COP(=O)(O)O)cn2)c1C | 29%
CCCC(=O)OCn1cnc([C@@H](C)c2cccc(C)c2C)c1 [Compound 8-HCl] | 76%

# Degradation rate of prodrug % lookup, item CCOC(=O)OCn1cnc([C@@H](C)c2cccc(C)c2C)c1 [Compound 6-HCl] 21%

----------
Assay: Degradation of prodrug in rat plasma (release of dexmedetomidine, HPLC)
Assay type: in vitro ADME
Settings: 37° C., 30 min
Where a name gives a salt, the structure may show the parent alone.
Items are presented alongside their recorded Degradation rate of prodrug %.
The reply should contain only the number, in %.

Observe how each entry below is paired with its result.
compound | Degradation rate of prodrug % (%)
CC(=O)OC(C)n1cnc([C@@H](C)c2cccc(C)c2C)c1 (stereo partly drawn) [Compound 17-HCl] | 58
CCOC(=O)COC(=O)OCn1cnc([C@@H](C)c2cccc(C)c2C)c1 [Compound 24-HCl] | 38
COC(=O)COC(=O)OCn1cnc([C@@H](C)c2cccc(C)c2C)c1 [Compound 23-HCl] | 31
CCC(=O)OC(C)n1cnc([C@@H](C)c2cccc(C)c2C)c1 (stereo partly drawn) [Compound 18-HCl] | 72
COC(=O)CCC(=O)OCn1cnc([C@@H](C)c2cccc(C)c2C)c1 [Compound 25-HCl] | 76

Turning now to a further compound:
Query: Degradation rate of prodrug %; subject: `Cc1cccc([C@H](C)c2cn(COP(=O)(O)O)cn2)c1C` 43

----------
System: Male SD rats
Assay: Blood pressure change after tail vein injection (mean arterial pressure)
Settings: dosage 2× ED50, injection within 15 seconds, 60 min recording, rats under isoflurane
Structures can show the parent of a compound that is named as a salt.
Overview of reported +Δ % (The maximum increase rate of blood pressure) across a group of compounds:
Your answer is read as %, so omit the unit and give the number.

Guide cases for +Δ % (The maximum increase rate of blood pressure), answers given:
compound | tested_system | numeric_value
Cc1cccc([C@H](C)c2cn(COC(=O)OC3CCC3)cn2)c1C [Compound 14-HCl] | Male SD rats | 31
Cc1cccc([C@H](C)c2cn(C(=O)OCC(C)C)cn2)c1C [Compound 4-HCl] | Male SD rats | 34
CCC(=O)OCn1cnc([C@@H](C)c2cccc(C)c2C)c1 [Compound 10-HCl] | Male SD rats | 31

Consider the additional compound presented here.
Entry under review: CCC(=O)OC(C)n1cnc([C@@H](C)c2cccc(C)c2C)c1 (stereo partly drawn) [Compound 18-HCl] . Reported +Δ % (The maximum increase rate of blood pressure)? 29
